Experimental System: UniProtKB P48736
Sequence (P48736 whole entry): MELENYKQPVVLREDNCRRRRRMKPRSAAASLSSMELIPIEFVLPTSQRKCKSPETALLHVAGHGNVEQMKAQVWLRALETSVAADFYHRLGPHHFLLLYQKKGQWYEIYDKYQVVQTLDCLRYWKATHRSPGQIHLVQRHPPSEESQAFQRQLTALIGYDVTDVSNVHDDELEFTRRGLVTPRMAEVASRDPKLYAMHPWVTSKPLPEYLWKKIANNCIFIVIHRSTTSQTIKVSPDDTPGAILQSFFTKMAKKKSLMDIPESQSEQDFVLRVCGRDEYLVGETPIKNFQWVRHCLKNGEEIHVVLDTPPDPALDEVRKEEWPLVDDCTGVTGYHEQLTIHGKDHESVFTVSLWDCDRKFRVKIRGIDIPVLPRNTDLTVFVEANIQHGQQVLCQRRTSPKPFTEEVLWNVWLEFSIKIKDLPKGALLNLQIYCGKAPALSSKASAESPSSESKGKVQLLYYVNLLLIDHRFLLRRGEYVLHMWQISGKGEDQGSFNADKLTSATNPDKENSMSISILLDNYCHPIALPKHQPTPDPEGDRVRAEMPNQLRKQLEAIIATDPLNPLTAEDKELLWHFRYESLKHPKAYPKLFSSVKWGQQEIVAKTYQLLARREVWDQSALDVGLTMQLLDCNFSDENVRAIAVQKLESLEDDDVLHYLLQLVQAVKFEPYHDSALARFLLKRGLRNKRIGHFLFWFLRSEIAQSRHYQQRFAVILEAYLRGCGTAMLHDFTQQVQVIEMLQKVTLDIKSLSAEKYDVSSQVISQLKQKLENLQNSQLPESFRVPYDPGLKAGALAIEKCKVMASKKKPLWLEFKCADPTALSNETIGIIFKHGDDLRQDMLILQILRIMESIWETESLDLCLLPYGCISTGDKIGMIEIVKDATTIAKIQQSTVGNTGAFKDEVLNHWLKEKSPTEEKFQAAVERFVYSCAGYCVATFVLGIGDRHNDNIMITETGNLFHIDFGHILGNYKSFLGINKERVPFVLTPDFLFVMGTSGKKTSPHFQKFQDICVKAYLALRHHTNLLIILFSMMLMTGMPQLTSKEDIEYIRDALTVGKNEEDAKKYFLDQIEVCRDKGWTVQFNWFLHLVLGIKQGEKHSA
Outcome Measure: IC50 (nM)
// return numeric value only (unit: nM, not printed)

Param readout = IC50; param system = UniProtKB P48736; param query = Cc1nc(NC(=O)CN)sc1-c1cnc(Cl)c(NS(=O)(=O)c2ccc(C(C)(C)C)cc2)c1 [PI3KD/V-IN-01] ; response: value
119

Values from paper PMC5288202
